target: human dopamine D1 receptor (Homo sapiens); construct: A 1.4 Kb Hind III to Xho I fragment was subcloned into the vector pMMLV; expressed in transfected cells; host or cells: CHO cells, clone CHO-D1M#9 (plasmid pHD1MMLV), membranes; experiment: [3H]-SCH-23390 binding to cloned human dopamine D1 receptors (CHO cell membranes); settings: competitive binding, [3H]-SCH-23390, cloned human D1 in CHO membranes; read-out: D1 affinity Ki
pKi: −log10 of the molar value. Counter-ions that a name gives are not always drawn.
attribute-measured: pKi

[A] Cc1ccc2c(c1O)C[C@@H](C1CCN(Cc3ccc(Cl)cc3Cl)CC1)O[C@H]2CN [Example 59, dihydrochloride]
[B] Cc1ccc2c(c1O)C[C@@H](C1CCN(S(=O)(=O)C(C)C)CC1)O[C@H]2CN [Example 155, hydrochloride]
[C] Cc1ccc2c(c1O)C[C@@H](C1CCN(CCNC(=O)Nc3ccc(F)cc3)CC1)O[C@H]2CN [Example 192, dihydrobromide]
Q: Please list these compounds in decreasing order of pKi. Give your ranking as a list of the labels in the requested order.
A: A, C, B
(A: 7.34, C: 7.11, B: 6.66)

---

Where a name gives a salt, the structure may show the parent alone.
These compounds were tested on human dopamine D2Long (D2L) receptors (Homo sapiens, UniProt P14416); Ki is the recorded read-out.
Sequence (P14416 whole entry): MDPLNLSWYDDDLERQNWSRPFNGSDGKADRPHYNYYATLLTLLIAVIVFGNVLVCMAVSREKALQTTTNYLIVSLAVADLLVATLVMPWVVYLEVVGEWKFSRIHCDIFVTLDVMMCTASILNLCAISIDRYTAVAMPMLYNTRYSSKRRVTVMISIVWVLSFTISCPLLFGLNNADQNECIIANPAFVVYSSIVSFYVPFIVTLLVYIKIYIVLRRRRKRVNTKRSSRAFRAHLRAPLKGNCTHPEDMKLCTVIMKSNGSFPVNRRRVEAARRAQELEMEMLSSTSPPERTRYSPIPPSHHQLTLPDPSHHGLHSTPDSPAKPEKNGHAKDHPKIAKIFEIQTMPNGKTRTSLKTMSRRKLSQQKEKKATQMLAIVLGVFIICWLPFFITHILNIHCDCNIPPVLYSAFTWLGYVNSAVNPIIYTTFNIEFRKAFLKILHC

Recorded results for 3 compounds are shown here.
INSERT INTO assay_data (compound, recorded_value) VALUES
  ('Cc1ccc2c(c1O)C[C@@H](C1CCN(S(=O)(=O)c3ccccc3)CC1)O[C@H]2CN [Example 141, hydrochloride]', '≥ 100 µM'),
  ('Cc1ccc2c(c1O)C[C@@H](C1CCN(C(=O)N(C(C)C)C(C)C)CC1)O[C@H]2CN [Example 133, hydrochloride]', '≥ 100 µM'),
  ('CCN(CC)C(=O)N1CCC([C@@H]2Cc3c(ccc(C)c3O)[C@H](CN)O2)CC1 [Example 136, hydrochloride]', '≥ 100 µM');

Pending compound:
Record Cc1ccc2c(c1O)C[C@@H](C1CCN(CC(C)c3ccccc3)CC1)O[C@H]2CN (stereo partly shown) [Example 29, dihydrobromide] . Reported Ki: ≥ 10 µM

---

These compounds were tested on human dopamine D2Long (D2L) receptors (Homo sapiens); pKi is the recorded read-out.
Counter-ions that a name gives are not always drawn.
Keep it numeric: pKi is minus log10 of the concentration in mol/L.

INSERT INTO assay_data (compound, attribute_measured, recorded_value) VALUES
  ('C=CCN(CC=C)C[C@@H]1O[C@H](C2CCN(CC(=O)c3ccccc3)CC2)Cc2c1ccc(C)c2O', 'pKi', 7.07);

Pending compound:
Record Cc1ccc2c(c1O)C[C@@H](C1CCN(C(=O)Oc3ccccc3O)CC1)O[C@H]2CN [Example 121, hydrochloride] . Reported pKi: 6.21

---

molecular target: human dopamine D1 receptor (Homo sapiens, UniProt P21728); construct: A 1.4 Kb Hind III to Xho I fragment was subcloned into the vector pMMLV; expressed in transfected cells; host or cells: CHO cells, clone CHO-D1M#9 (plasmid pHD1MMLV), membranes; assay: [3H]-SCH-23390 binding to cloned human dopamine D1 receptors (CHO cell membranes); details: competitive binding, [3H]-SCH-23390, cloned human D1 in CHO membranes; read-out: D1 affinity Ki
Sequence (P21728 whole entry, the tested form may be a part): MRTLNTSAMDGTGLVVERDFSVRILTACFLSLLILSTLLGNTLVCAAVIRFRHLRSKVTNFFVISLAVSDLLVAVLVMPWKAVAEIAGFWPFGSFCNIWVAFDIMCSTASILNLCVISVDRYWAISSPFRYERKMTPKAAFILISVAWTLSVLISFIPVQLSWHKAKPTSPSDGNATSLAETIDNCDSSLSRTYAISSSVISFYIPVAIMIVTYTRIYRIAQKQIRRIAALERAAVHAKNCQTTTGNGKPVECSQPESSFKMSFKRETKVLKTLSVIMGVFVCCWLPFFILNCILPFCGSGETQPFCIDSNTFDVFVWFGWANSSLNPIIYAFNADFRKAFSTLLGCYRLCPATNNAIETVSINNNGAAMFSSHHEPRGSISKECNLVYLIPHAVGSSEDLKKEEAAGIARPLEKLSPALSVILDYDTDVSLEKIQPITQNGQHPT
Where a name gives a salt, the structure may show the parent alone.
attribute-measured: Ki (nM)

Recorded results for 4 compounds are shown here.
INSERT INTO results (compound, unit_info, recorded_value) VALUES
  ('Cc1ccc2c(c1O)C[C@@H](C1CCN(C(=O)N(C)c3ccccc3)CC1)O[C@H]2CN [Example 131, hydrochloride]', 'nM', 51),
  ('Cc1ccc2c(c1O)C[C@@H](C1CCN(Cc3cccnc3)CC1)O[C@H]2CN [Example 53, dihydrochloride]', 'nM', 60.7),
  ('CNC[C@@H]1O[C@H](C2CCN(Cc3ccc(OC)cc3)CC2)Cc2c1ccc(C)c2O [Example 99, dihydrochloride]', 'nM', 53.1),
  ('Cc1ccc2c(c1O)C[C@@H](C1CCN(Cc3cn(Cc4ccccc4)c4ccccc34)CC1)O[C@H]2CN [Example 91, dihydrochloride]', 'nM', 40.7);

[A] Cc1ccc(C(=O)NCCN2CCC([C@@H]3Cc4c(ccc(C)c4O)[C@H](CN)O3)CC2)cc1 [Example 190, dihydrobromide]
[B] Cc1ccc2c(c1O)C[C@@H](C1CCN(C(=O)N3CCOCC3)CC1)O[C@H]2CN [Example 134, hydrochloride]
Q: // compare measured Ki, left A , right B , return larger I would appreciate it if you answered with the label of your choice.
A: B
(B: 240 nM, A: 46 nM)

---

Where a name gives a salt, the structure may show the parent alone.
These compounds were tested on human dopamine D2Long (D2L) receptors (Homo sapiens, UniProt P14416); Ki is the recorded read-out.

Recorded results for 8 compounds are shown here.
INSERT INTO assay_data (compound, recorded_value) VALUES
  ('Cc1ccc2c(c1O)C[C@@H](C1CCN(S(=O)(=O)c3cc(Cl)ccc3Cl)CC1)O[C@H]2CN [Example 151, hydrochloride]', '≥ 100 µM'),
  ('Cc1ccc2c(c1O)C[C@@H](C1CCN(Cc3ccc(C(C)C)cc3)CC1)O[C@H]2CN [Example 48, dihydrochloride]', '≥ 10 µM'),
  ('Cc1ccc2c(c1O)C[C@@H](C1CCN(Cc3ccccn3)CC1)O[C@H]2CN [Example 52, dihydrochloride]', '≥ 10 µM'),
  ('Cc1ccc2c(c1O)C[C@@H](C1CCN(Cc3cccs3)CC1)O[C@H]2CN [Example 47, dihydrochloride]', '≥ 10 µM'),
  ('Cc1ccc2c(c1O)C[C@@H](C1CCN(CC(C)C)CC1)O[C@H]2CN [Example 40, dihydrochloride]', '≥ 10 µM'),
  ('Cc1ccc2c(c1O)C[C@@H](C1CCN(C(=O)Nc3cc(C(F)(F)F)ccc3F)CC1)O[C@H]2CN [Example 124, hydrobromide]', '≥ 10 µM'),
  ('Cc1ccc2c(c1O)C[C@@H](C1CCN(C(=O)N(C)C)CC1)O[C@H]2CN [Example 132, hydrochloride]', '≥ 100 µM'),
  ('Cc1ccc2c(c1O)C[C@@H](C1CCN(C(=O)Nc3ccc(F)cc3)CC1)O[C@H]2CN [Example 128, hydrochloride]', '≥ 10 µM');

# value of Ki, human dopamine D2Long (D2L) receptors (Homo sapiens, UniProt P14416), item Cc1ccc2c(c1O)C[C@@H](C1CCN(CC3CC3)CC1)O[C@H]2CN [Example 38, dihydrochloride] = ≥ 10 µM

# value of Ki, human dopamine D2Long (D2L) receptors (Homo sapiens, UniProt P14416), item CCCCCCCCS(=O)(=O)N1CCC([C@@H]2Cc3c(ccc(C)c3O)[C@H](CN)O2)CC1 [Example 156, hydrochloride] = ≥ 100 µM

# value of Ki, human dopamine D2Long (D2L) receptors (Homo sapiens, UniProt P14416), item Cc1ccc2c(c1O)C[C@@H](C1CCN(S(=O)(=O)C[C@@]34CC[C@@H](CC3=O)C4(C)C)CC1)O[C@H]2CN [Example 162, hydrochloride] = ≥ 100 µM

# value of Ki, human dopamine D2Long (D2L) receptors (Homo sapiens, UniProt P14416), item Cc1ccc2c(c1O)C[C@@H](C1CCN(S(=O)(=O)N3CCCCC3)CC1)O[C@H]2CN [Example 165, hydrochloride] = ≥ 10 µM

Ref: patent US7919508B2
